Kindly supply the reported melting point values for the records listed here.

Which melting point is listed for C#CCOc1ccc(N2C(CC(=O)NO)c3ccccc3S2(=O)=O)cc1 (centres unmarked) ? 155 to 157 °C (dec.)

Do the same for Cc1cc(COc2ccc(N3C(CC(=O)NO)c4ccccc4S3(=O)=O)cc2)c2ccccc2n1 (centres unmarked) please 195 to 197 °C

Now give it for O=C(CC1c2c(Cl)cccc2S(=O)(=O)N1c1ccccc1)NO (centres unmarked) too. 204 to 206 °C

Try COc1cccc2c1S(=O)(=O)N(c1ccccc1)C2CC(=O)NO (centres unmarked) next. > 161 °C (dec.)

Repeat with Cc1cc(COc2ccc(N3C(CC(=O)NO)c4ccccc4S3(=O)=O)cc2)cc(C)n1 (centres unmarked) > 210 °C (dec.)

Consider next the compound CN(C)c1ccc(N2C(CC(=O)NO)c3ccccc3S2(=O)=O)cc1 (centres unmarked) in the same way. 185 to 186 °C

Try the compound O=C(CC1c2ccccc2S(=O)(=O)N1c1cccc(F)c1)NO (centres unmarked) 145 to 147 °C (dec.)

Record: COc1cc2c(cc1OC)S(=O)(=O)N(c1ccccc1)C2CC(=O)NO (centres unmarked) 197 to 199 °C (dec.)

* * *

target.system: Human recombinant TACE enzyme (Homo sapiens, UniProt P78536)
Construct: purchased R and D Systems, Abingdon, UK 930-ADB
Sequence (P78536 215-671 limits assumed): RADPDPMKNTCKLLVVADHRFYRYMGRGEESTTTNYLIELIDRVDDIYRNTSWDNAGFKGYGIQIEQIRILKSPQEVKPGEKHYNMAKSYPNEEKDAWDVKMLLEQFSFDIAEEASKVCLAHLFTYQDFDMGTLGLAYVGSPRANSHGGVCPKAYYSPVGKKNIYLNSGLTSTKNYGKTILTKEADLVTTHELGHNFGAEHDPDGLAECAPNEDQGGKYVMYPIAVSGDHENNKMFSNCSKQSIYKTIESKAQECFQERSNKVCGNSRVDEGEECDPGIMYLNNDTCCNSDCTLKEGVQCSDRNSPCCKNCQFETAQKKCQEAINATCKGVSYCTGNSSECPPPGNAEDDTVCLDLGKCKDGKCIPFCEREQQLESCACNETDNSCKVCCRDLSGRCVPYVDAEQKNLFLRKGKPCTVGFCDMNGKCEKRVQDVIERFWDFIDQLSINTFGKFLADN
test.method.notes: TACE assay (fluorescent peptide substrate)
Assay type: biochemical
test.context: 3.5 h; single concentration @100 (μM); read-out: Av. TACE Inhibition, % @100
measured.endpoint: inhibition at 100 µM (%)
Just the number in %, nothing appended.

Kindly state the measured inhibition at 100 µM obtained for O=C(NO)C1c2c(Cl)cccc2S(=O)(=O)N1c1ccccc1 (stereo not drawn) with Human recombinant TACE enzyme (Homo sapiens, UniProt P78536). 27

What would you report for O=C(CCC1c2ccccc2S(=O)(=O)N1c1ccccc1)NO (stereo not drawn) ? 26

Again, but for O=C(CC1c2ccccc2S(=O)(=O)N1c1cccc(CO)c1)NO (stereo not drawn) 64

* * *

target.system: Human recombinant TACE enzyme (Homo sapiens, UniProt P78536)
Construct: purchased R and D Systems, Abingdon, UK 930-ADB
test.method.notes: TACE assay (fluorescent peptide substrate)
Format: biochemical
test.context: 3.5 h; single concentration @2 (μM); read-out: Av. TACE Inhibition, % @2
Kindly supply the reported inhibition at 2 µM values for the records listed here.
Respond with the bare value in %.

Look at this compound and give its reported inhibition at 2 µM. COc1cccc2c1S(=O)(=O)N(c1ccccc1)C2CC(=O)NO (centres unmarked) 13

Queued: Cc1cc(F)c2c(c1)C(CC(=O)NO)N(c1ccccc1)S2(=O)=O (centres unmarked) 57

// query: COc1cc2c(c(OC)c1OC)S(=O)(=O)N(c1ccccc1)C2CC(=O)NO (centres unmarked) 10

One more compound: O=C(CC1c2c(Cl)cc(Cl)cc2S(=O)(=O)N1c1ccccc1)NO (centres unmarked) 0

Let us now turn to O=C(CC1c2cccc(Cl)c2S(=O)(=O)N1c1ccccc1)NO (centres unmarked) 34

* * *

target.system: Human recombinant TACE enzyme (Homo sapiens)
Construct: purchased R and D Systems, Abingdon, UK 930-ADB
test.method.notes: TACE assay (fluorescent peptide substrate)
Assay type: biochemical
test.context: 3.5 h; single concentration @100 (μM); read-out: Av. TACE Inhibition, % @100
Please use condition met whenever inhibition at 100 µM is not below 50%, and condition not met whenever it is.

Tell me whether inhibition at 100 µM is at least 50% here: O=C(CC1c2ccccc2S(=O)(=O)N1c1ccc(OCCN2CCOCC2)cc1)NO (stereo not drawn) condition met

Next: O=C(CC1c2ccccc2S(=O)(=O)N1c1ccc(-c2cnco2)cc1)NO (stereo not drawn) condition met

// query: O=C(CC1c2ccccc2S(=O)(=O)N1c1cccc(Oc2ccccc2)c1)NO (stereo not drawn) condition met

Input O=C(CC1c2ccccc2S(=O)(=O)N1c1cccc(-c2ccccc2)c1)NO (stereo not drawn) condition met

Entry O=C(CC1c2ccccc2S(=O)(=O)N1c1ccc(N2CCOCC2)cc1)NO (stereo not drawn) please condition not met

Again, but for O=C(NO)C1c2ccccc2S(=O)(=O)N1c1ccccc1 (stereo not drawn) condition not met

And what about the compound COc1cccc(N2C(CC(=O)NO)c3ccccc3S2(=O)=O)c1 (stereo not drawn) ? condition met

Moving on to the next compound: O=C(CC1c2ccccc2S(=O)(=O)N1c1ccc(C(F)(F)F)cc1)NO (stereo not drawn) condition met

* * *

Task for the reader: assign each of the following molecules its reported melting point.

Give its melting point value. Item: COc1cc(Cl)cc2c1S(=O)(=O)N(c1ccccc1)C2CC(=O)NO (centres unmarked) > 170 °C (dec.)

Another molecule to look at: C#CCCOc1ccc(N2C(CC(=O)NO)c3ccccc3S2(=O)=O)cc1 (centres unmarked) 148 to 150 °C (dec.)

Another molecule to look at: CCC#CCOc1ccc(N2C(CC(=O)NO)c3ccccc3S2(=O)=O)cc1 (centres unmarked) 135 to 137 °C (dec.)

Item: O=C(CC1c2cccc(C(F)(F)F)c2S(=O)(=O)N1c1ccccc1)NO (centres unmarked) 187 to 189 °C

Request: CC#CCOc1ccc(N2C(CC(=O)O)c3ccccc3S2(=O)=O)cc1 (centres unmarked) 160 to 161 °C

Now give it for O=C(NO)C1c2ccccc2S(=O)(=O)N1c1ccccc1 (centres unmarked) too. 188 to 191 °C

Please give the result for O=C(CC1c2ccccc2S(=O)(=O)N1c1ccc(-c2ccccc2)cc1)NO (centres unmarked) too. 207 to 208 °C (dec.)

Request: O=C(CC1c2ccccc2S(=O)(=O)N1c1ccc(OCc2ccnc3ccccc23)cc1)NO (centres unmarked) 218 to 220 °C (dec.)

Another molecule to look at: Cc1cc(COc2ccc(N3C(CC(=O)NO)c4ccccc4S3(=O)=O)cc2)c2cc(F)ccc2n1 (centres unmarked) > 140 °C (dec.)

What would you report for O=C(CC1c2ccccc2S(=O)(=O)N1c1ccc(-n2cccc2)cc1)NO (centres unmarked) ? 192 to 194 °C (dec.)

Same lookup for O=C(CC1c2ccccc2S(=O)(=O)N1c1ccc(OCc2ccncc2)cc1)NO (centres unmarked) , please. 212 to 214 °C (dec.)

Input O=C(O)CC1c2ccccc2S(=O)(=O)N1c1ccccc1 (centres unmarked) 178 to 179 °C (dec.)

Now this one: Cc1cc(COc2ccc(N3C(CC(=O)NO)c4ccccc4S3(=O)=O)cc2)ccn1 (centres unmarked) > 204 °C (dec.)

Another: O=C(CC1c2cc3c(cc2S(=O)(=O)N1c1ccccc1)OCCO3)NO (centres unmarked) 202 to 204 °C (dec.)

Would you kindly repeat that for COc1ccc2c(c1)C(CC(=O)NO)N(c1ccccc1)S2(=O)=O (centres unmarked) ? 180 to 182 °C

Similarly, COc1ccc(N2C(CC(=O)NO)c3ccccc3S2(=O)=O)cn1 (centres unmarked) ? 189 to 190 °C

Try this molecule next: O=C(CC1c2ccccc2S(=O)(=O)N1c1ccc(-c2cnco2)cc1)NO (centres unmarked) 138 to 140 °C (dec.)

And CSc1ccc(N2C(CC(=O)NO)c3ccccc3S2(=O)=O)cc1 (centres unmarked) ? 197 to 198 °C (dec.)

Then this molecule: Cc1cc(COc2ccc(N3C(CC(=O)NO)c4ccccc4S3(=O)=O)cc2)c2cc(Cl)ccc2n1 (centres unmarked) > 215 °C (dec.)

Again, but for CCOc1ccc(N2C(CC(=O)NO)c3ccccc3S2(=O)=O)cc1 (centres unmarked) 177 to 178 °C

// repeat for Cc1nc(-c2ccc(N3C(CC(=O)NO)c4ccccc4S3(=O)=O)cc2)cs1 (centres unmarked) and report 179 to 181 °C (dec.)

Now consider COc1ccc(N2C(CC(=O)NO)c3ccccc3S2(=O)=O)cc1 (centres unmarked) . 185 to 186 °C

Proceed to O=C(CC1c2ccccc2S(=O)(=O)N1c1ccc(Cl)cc1)NO (centres unmarked) 184 to 185 °C

Would you mind doing O=C(CC1c2ccccc2S(=O)(=O)N1c1ccc(OCc2ccccn2)cc1)NO (centres unmarked) as well? > 170 °C (dec.)

Now try O=C(NO)C1c2c(Cl)cccc2S(=O)(=O)N1c1ccccc1 (centres unmarked) . 167 to 170 °C

Now the molecule O=C(CC1NS(=O)(=O)c2ccccc21)NO (centres unmarked) 152 to 154 °C

Cc1cc(C(C)Oc2ccc(N3C(CC(=O)NO)c4ccccc4S3(=O)=O)cc2)c2ccccc2n1 (centres unmarked) ? 200 to 204 °C (dec.)

Next record, please: O=C(CC1c2ccccc2S(=O)(=O)N1c1ccc(OCc2ccccc2)cc1)NO (centres unmarked) 186 to 187 °C

Also COc1cccc(N2C(CC(=O)NO)c3ccccc3S2(=O)=O)c1 (centres unmarked) ? 147 to 148 °C

Try this molecule next: COc1cccc2c1C(CC(=O)NO)N(c1ccccc1)S2(=O)=O (centres unmarked) 188 to 190 °C

One more molecule: O=C(CC1c2cccc(Cl)c2S(=O)(=O)N1c1ccccc1)NO (centres unmarked) > 188 °C (dec.)

Then O=C(CC1c2ccccc2S(=O)(=O)N1c1ccc(N2CCOCC2)cc1)NO (centres unmarked) ? 204 to 206 °C

And COc1ccc2c(c1Cl)C(CC(=O)NO)N(c1ccccc1)S2(=O)=O (centres unmarked) ? 184 to 188 °C (dec.)

Similarly, O=C(CC1c2ccccc2S(=O)(=O)N1c1ccc(-n2ccnc2)cc1)NO (centres unmarked) ? 199 to 201 °C (dec.)

C=CCOc1ccc(N2C(CC(=O)NO)c3ccccc3S2(=O)=O)cc1 (centres unmarked) ? 166 to 168 °C (dec.)
